Assay: MALDI quantitative MSI (on-tissue qMSI) of rotenone in kidney tissue sections after a single oral dose
Format: in vivo
Details: rat, kidney, po, 2 mg/kg, single oral 2 mg/kg, Kidney Tissue 2 (layer 2), read-out: Relative concentration per tissue section

{"columns": ["Molecule", "Value unit", "concentration at 24 h"],
 "data": [
  ["C=C(C)[C@H]1Cc2c(ccc3c2O[C@@H]2COc4cc(OC)c(OC)cc4[C@@H]2C3=O)O1", "ng/g", 1100]
]}

----------
Assay: MALDI quantitative MSI (on-tissue qMSI) of rotenone in kidney tissue sections after a single oral dose
Format: in vivo
Details: rat, kidney, po, 2 mg/kg, single oral 2 mg/kg, Kidney Tissue 7 (layer 7), read-out: Relative concentration per tissue section

{"columns": ["Molecule", "concentration at 24 h"],
 "data": [
  ["C=C(C)[C@H]1Cc2c(ccc3c2O[C@@H]2COc4cc(OC)c(OC)cc4[C@@H]2C3=O)O1", "14700 ng/g"]
]}

----------
Test: MALDI quantitative MSI (on-tissue qMSI) of rotenone in kidney tissue sections after a single oral dose
Assay type: in vivo
Settings: rat, kidney, po, 2 mg/kg, single oral 2 mg/kg, AVERAGE ± SD of 7 kidney tissue sections, read-out: Relative concentration per tissue section
Description: Rats were sacrificed 24 h after drug administration, and the kidney and liver organs were immediately removed, flash-frozen with liquid nitrogen, and stored at −80°C in a freezer for long-term storage. […] This method utilized an untreated kidney tissue sample which was sectioned and mounted on a clean glass slide. […] The limits of detection (LOD) and quantification (LOQ) were calculated by averaging the calibration curves, using signal-to-noise ratios (S/N) of 3:1 for LOD and 10:1 for LOQ. […]
Value kind: concentration at 24 h (ng/g)

{"columns": ["Molecule", "Value unit", "Value reported"],
 "data": [
  ["C=C(C)[C@H]1Cc2c(ccc3c2O[C@@H]2COc4cc(OC)c(OC)cc4[C@@H]2C3=O)O1", "ng/g", 5860]
]}

----------
Assay: MALDI quantitative MSI (on-tissue qMSI) of rotenone in kidney tissue sections after a single oral dose
Assay type: in vivo
Conditions: rat, kidney, po, 2 mg/kg, single oral 2 mg/kg, Kidney Tissue 5 (layer 5), read-out: Relative concentration per tissue section

{"columns": ["Molecule", "concentration at 24 h, ng/g"],
 "data": [
  ["C=C(C)[C@H]1Cc2c(ccc3c2O[C@@H]2COc4cc(OC)c(OC)cc4[C@@H]2C3=O)O1", 6420]
]}

----------
Test: MALDI quantitative MSI (on-tissue qMSI) of rotenone in kidney tissue sections after a single oral dose
Format: in vivo
Conditions: rat, kidney, po, 2 mg/kg, single oral 2 mg/kg, Kidney Tissue 5 (layer 5), read-out: Concentration
Value kind: concentration at 24 h (µg/mL)

{"columns": ["Molecule", "Value reported"],
 "data": [
  ["C=C(C)[C@H]1Cc2c(ccc3c2O[C@@H]2COc4cc(OC)c(OC)cc4[C@@H]2C3=O)O1", 7]
]}

----------
Test: MALDI quantitative MSI (on-tissue qMSI) of rotenone in kidney tissue sections after a single oral dose
Type: in vivo
Conditions: rat, kidney, po, 2 mg/kg, single oral 2 mg/kg, Kidney Tissue 3 (layer 3), read-out: Concentration

{"columns": ["Compound", "Value unit", "concentration at 24 h"],
 "data": [
  ["C=C(C)[C@H]1Cc2c(ccc3c2O[C@@H]2COc4cc(OC)c(OC)cc4[C@@H]2C3=O)O1 [rotenone, Rotenone]", "ng/mL", 2600]
]}
